# assayed.system: human GGT (Homo sapiens)
# Construct: purchased Asahi Kasei Co., Ltd. HC-GTP (lot 603AA)
# Sequence (P19440 1-380 limits assumed): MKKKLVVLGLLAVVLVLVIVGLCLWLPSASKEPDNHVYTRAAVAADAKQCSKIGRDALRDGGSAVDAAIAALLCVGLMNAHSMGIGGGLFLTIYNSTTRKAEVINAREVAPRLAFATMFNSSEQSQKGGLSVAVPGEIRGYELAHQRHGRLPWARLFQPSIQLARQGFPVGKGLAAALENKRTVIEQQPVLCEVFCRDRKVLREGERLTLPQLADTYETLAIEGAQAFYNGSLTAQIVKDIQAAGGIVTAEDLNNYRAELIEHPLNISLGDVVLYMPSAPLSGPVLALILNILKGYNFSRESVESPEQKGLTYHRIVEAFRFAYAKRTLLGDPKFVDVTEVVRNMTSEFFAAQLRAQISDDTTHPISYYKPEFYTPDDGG
# Sequence (P19440 381-569 limits assumed): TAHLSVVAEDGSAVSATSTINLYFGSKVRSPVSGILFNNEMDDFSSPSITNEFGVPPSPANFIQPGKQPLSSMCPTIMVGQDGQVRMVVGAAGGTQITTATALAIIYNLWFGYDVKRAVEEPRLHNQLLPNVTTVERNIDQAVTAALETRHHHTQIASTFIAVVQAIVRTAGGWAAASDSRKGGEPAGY
# assay.name: Second-order rate constant kon of human GGT inactivation (continuous or discontinuous assay)
# Format: biochemical
# details: second-order rate constant for enzyme inactivation; pH 5.5, 25° C.
property: kon Human GGT

*Q* Report kon Human GGT for N[C@H](C(=O)O)[C@@H]1CC(Cl)=NO1 [Comparative Example 1, (aS, 5S)-acivicin, reference compound]
*A* 0.40 ± 0.02 M^−1S^−1

*Q* Report kon Human GGT for COP(=O)(CCC(N)C(=O)O)Oc1ccc(Cl)cc1 (stereo not drawn)
*A* 5.0 M^−1S^−1

*Q* Report kon Human GGT for COP(=O)(CCC(N)C(=O)O)Oc1ccc([N+](=O)[O-])cc1 (stereo not drawn)
*A* 125.1 M^−1S^−1

*Q* Report kon Human GGT for COc1ccc(OP(=O)(CCC(N)C(=O)O)OC)cc1 (stereo not drawn)
*A* 0.16 M^−1S^−1

*Q* Report kon Human GGT for CCC(OP(=O)(CCC(N)C(=O)O)Oc1ccccc1)C(=O)NCC(=O)O (stereo not drawn)
*A* 74.5 M^−1S^−1

*Q* Report kon Human GGT for COP(=O)(CCC(N)C(=O)O)Oc1cccc(C(=O)O)c1 (stereo not drawn)
*A* 1.63 M^−1S^−1

*Q* Report kon Human GGT for CCCCOP(=O)(CCC(N)C(=O)O)Oc1ccccc1 (stereo not drawn)
*A* 0.023 M^−1S^−1

*Q* Report kon Human GGT for COP(=O)(CCC(N)C(=O)O)Oc1ccc(C#N)cc1 (stereo not drawn)
*A* 45.9 M^−1S^−1

*Q* Report kon Human GGT for COP(=O)(CCC(N)C(=O)O)Oc1ccccc1 (stereo not drawn)
*A* 0.40 M^−1S^−1
